target: T1, human activated protein C (APC) (human, UniProt P04070 43-461)
T1 construct: Bought (Haematologic Technologies; plasma-derived from Enzyme Research Laboratories); Two-chain disulfide-linked protease
T1 sequence (P04070 other isoform, or with tags, fused parts or gaps): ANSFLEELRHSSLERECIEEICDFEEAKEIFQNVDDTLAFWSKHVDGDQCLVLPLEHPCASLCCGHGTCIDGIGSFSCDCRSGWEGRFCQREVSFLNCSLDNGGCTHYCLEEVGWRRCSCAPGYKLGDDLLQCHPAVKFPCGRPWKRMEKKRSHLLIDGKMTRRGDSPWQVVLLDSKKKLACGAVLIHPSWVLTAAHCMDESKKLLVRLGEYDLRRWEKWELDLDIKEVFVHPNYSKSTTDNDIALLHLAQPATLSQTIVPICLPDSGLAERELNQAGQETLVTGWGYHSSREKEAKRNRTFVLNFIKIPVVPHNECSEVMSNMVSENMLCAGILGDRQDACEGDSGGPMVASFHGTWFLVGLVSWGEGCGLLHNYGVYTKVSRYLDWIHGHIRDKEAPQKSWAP
protocol-summary: BLI, VHH captured via anti-V5, APC in solution
Please go through the items and note down their pKd.
Answers are plain numbers, as −log10 of the molar value.

binder | pKd
LP18 (SR16983-R4-P1-A11) (VHH, not shown: small tags and cut ends, Llama VHH purified from E. coli periplasm) VHH: QLQLVESGGGLVQPGGSLRLSCAASGFTFSTKWMYWVRQGPGKGLERVAAIDAGGTSTYYADSVKGRFTISRDNSENTVYLQMNSLESADTAVYYCARSEGGLFRGRGTQVTVSA | 8.35

Please turn your attention to the following entry.
State the recorded pKd for this entry: LP12 (SR16983-R3-P3-F06) (VHH, not shown: small tags and cut ends, Llama VHH purified from E. coli periplasm) VHH: QLQLVESGGGLVQAGDSLRLSCTSSGLTASTYAMAWFRQAPGKEREFVAVVDWKGDTTYANSVKGRFTLSRDNGKNTNYLQMNSLQPEDTALYYCAARGSPGYVARLYAHWGRGTQVTVSS
9.17
